List of protein stability index values.
B1: FAM107A (parent)
chain: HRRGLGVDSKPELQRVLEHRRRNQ

# Variants of: B1
# EXPERIMENTAL DETAILS: protein stability index of a GFP-peptide fusion (GPS, HEK-293T) (PSI 1-6); higher = more stable;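 also: lentivirally expressed fusions sorted by FACS into six bins by GFP to DsRed ratio, PSI derived from sequencing read proportions per bin multiplied by bin number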
# PROTOCOL CONDITIONS: c terminus: a fixed tail appended

Illustrative cases are given below, each with its answer.
SEQUENCE TEXT: HRRGLGVDSKPECQRVLEHRRRNQ
protein stability index: 3.67

SEQUENCE TEXT: HRRGLGVDSKPELQRVLEQRRRNQ
protein stability index: 3.67

SEQUENCE TEXT: HRRGLGVDSKPELQRVLEHRRRPQ
protein stability index: 3.03

get_value(item= HRRDLGVDSKPELQRVLEHRRRNQ , readout=protein stability index) returns 4.49

get_value(item= HRRGLGVDSKPELQRVLEHRNRNQ , readout=protein stability index) returns 4.74

get_value(item= HRRGLGVDSKPELQRVLEHRLRNQ , readout=protein stability index) returns 3.77

get_value(item= HRRGLGVDSKPELQRVLEHRRRNL , readout=protein stability index) returns 2.49

get_value(item= YRRGLGVDSKPELQRVLEHRRRNQ , readout=protein stability index) returns 4.12

get_value(item= SRRGLGVDSKPELQRVLEHRRRNQ , readout=protein stability index) returns 4.16

get_value(item= HRTGLGVDSKPELQRVLEHRRRNQ , readout=protein stability index) returns 4.92
